Cited source: patent US20230382924A1

- MEASURED_TARGET: CFTR (Homo sapiens)
- PROCEDURE_SUMMARY: Membrane Potential Dye, Enteroid Assay B
- Assay type: cell-based
- MEASUREMENT_CONTEXT: Enteroid Assay B; read-out: Ent. B EC50
- Method: Base medium (ADF+++) consisted of Advanced DMEM/Ham's F12, 2 mM Glutamax, 10 mM HEPES, […] penicillin/streptomycin. Bath 1 Buffer consisted of 1 mM MgCl2, 160 mM NaCl, 4.5 mM KCl, 10 mM HEPES, 10 mM Glucose, 2 mM CaCl2). […] Briefly, cells were washed 5 times in Bath 1 Buffer. […] Chloride transport was initiated by addition of Chloride Free Dye Stimulation Solution and the fluorescence signal was read for 15 min.
pEC50: −log10 of the molar value.
READOUT_KIND: pEC50

// query Look up pEC50: Cc1cccc(C)c1-c1cc2nc(n1)NS(=O)(=O)c1cccc(c1)C(=O)N[C@H](CC(C)C)CO2
// result > 6.00

// query Name the reported pEC50 value associated with the compound Cc1cccc(C)c1-c1cc2nc(n1)NS(=O)(=O)c1cccc(c1)C(=O)N[C@H](C)CO2
// result 4.52 to 5.52

// query Endpoint output: pEC50 of Cc1cccc(C)c1-c1cc2nc(n1)NS(=O)(=O)c1cccc(c1)C(=O)NC[C@@H](C)O2 . Value?
// result 4.52 to 5.52

// query What measured pEC50 goes with Cc1cccc(C)c1-c1cc2nc(n1)NS(=O)(=O)c1cccc(c1)C(=O)N[C@H](CC1CCCCC1)CO2 ?
// result > 6.00

// query # lookup: pEC50 of Cc1cccc(C)c1-c1cc2nc(n1)NS(=O)(=O)c1cccc(c1)C(=O)NC[C@@H](c1ccccc1)O2
// result > 6.00

// query // lookup pEC50 for Cc1cccc(C)c1-c1cc2nc(n1)NS(=O)(=O)c1cccc(c1)C(=O)N[C@H](CC(C)(C)C)CO2
// result > 6.00

* * *

- MEASURED_TARGET: CFTR (Homo sapiens, UniProt P13569)
- Sequence (P13569 with tags, fused parts or gaps DEL508-508): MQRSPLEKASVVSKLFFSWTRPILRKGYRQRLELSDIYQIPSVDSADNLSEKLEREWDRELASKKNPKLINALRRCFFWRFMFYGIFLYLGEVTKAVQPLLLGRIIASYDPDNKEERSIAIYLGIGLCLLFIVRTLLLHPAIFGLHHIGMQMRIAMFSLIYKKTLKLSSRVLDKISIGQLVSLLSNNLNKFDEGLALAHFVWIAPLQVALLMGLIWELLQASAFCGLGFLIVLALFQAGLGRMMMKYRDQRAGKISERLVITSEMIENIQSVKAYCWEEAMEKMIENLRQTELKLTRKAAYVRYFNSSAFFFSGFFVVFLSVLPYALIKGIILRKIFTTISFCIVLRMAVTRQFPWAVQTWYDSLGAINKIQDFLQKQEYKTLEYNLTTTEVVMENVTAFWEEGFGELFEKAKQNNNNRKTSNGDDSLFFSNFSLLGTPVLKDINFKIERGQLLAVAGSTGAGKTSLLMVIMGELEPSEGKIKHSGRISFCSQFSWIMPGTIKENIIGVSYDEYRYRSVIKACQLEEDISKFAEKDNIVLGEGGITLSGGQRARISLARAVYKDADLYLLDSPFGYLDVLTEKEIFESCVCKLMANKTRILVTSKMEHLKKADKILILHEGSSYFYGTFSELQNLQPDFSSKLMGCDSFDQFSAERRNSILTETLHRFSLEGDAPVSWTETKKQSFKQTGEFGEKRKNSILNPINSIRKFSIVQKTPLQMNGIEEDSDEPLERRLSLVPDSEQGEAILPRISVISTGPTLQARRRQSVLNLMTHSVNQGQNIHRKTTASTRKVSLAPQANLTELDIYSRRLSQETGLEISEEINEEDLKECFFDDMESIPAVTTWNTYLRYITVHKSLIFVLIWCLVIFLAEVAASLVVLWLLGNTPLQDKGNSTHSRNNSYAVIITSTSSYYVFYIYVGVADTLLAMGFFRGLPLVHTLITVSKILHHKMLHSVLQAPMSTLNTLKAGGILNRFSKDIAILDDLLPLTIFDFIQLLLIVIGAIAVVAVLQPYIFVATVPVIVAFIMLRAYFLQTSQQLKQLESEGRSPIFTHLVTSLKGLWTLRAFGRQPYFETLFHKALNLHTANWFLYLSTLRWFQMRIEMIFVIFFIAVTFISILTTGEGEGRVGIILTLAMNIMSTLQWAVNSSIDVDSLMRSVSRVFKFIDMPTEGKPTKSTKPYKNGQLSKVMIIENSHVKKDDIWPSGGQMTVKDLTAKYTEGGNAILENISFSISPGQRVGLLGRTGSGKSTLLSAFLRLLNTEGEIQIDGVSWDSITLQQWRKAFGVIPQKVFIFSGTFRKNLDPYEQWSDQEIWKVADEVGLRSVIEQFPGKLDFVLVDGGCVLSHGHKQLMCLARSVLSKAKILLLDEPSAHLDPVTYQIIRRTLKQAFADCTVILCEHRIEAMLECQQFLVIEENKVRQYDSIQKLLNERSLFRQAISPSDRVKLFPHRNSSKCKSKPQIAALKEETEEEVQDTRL
- PROCEDURE_SUMMARY: Membrane Potential Dye, Enteroid Assay A
- Type: cell-based
- MEASUREMENT_CONTEXT: Table 8
READOUT_KIND: Ent. A Max Activity

Cc1cccc(C)c1-c1cc2nc(n1)NS(=O)(=O)c1cccc(c1)C(=O)N[C@H](CC(C)C)C(C1CC1)O2 (stereo partly drawn) [Compound 238] ... +++ (+++ is >60%)
Cc1cccc(C)c1-c1cc2nc(n1)NS(=O)(=O)c1cccc(c1)C(=O)NC(CCC1(C(F)(F)F)CC1)CO2 (stereo not drawn) ... +++ (+++ is >60%)
Cc1cccc(C)c1-c1cc2nc(n1)NS(=O)(=O)c1cccc(c1)CN[C@H](CC1CCCCC1)CO2 ... + (+ is <30%)
Cc1cccc(C)c1-c1cc2nc(n1)NS(=O)(=O)c1cccc(c1)C(=O)NCC(c1cccc(Cl)c1)O2 (stereo not drawn) ... +++ (+++ is >60%)
Cc1cccc(C)c1-c1cc2nc(n1)NS(=O)(=O)c1cccc(c1)C(=O)NCC(Cc1ccc(C(C)(C)C)cc1)O2 (stereo not drawn) [Compound 241] ... +++ (+++ is >60%)
Cc1cccc(C)c1-c1cc2nc(n1)NS(=O)(=O)c1cccc(c1C)C(=O)N[C@H](CC1CCCCC1)CO2 ... +++ (+++ is >60%)

// query Record lookup: for CFTR (Homo sapiens, UniProt P13569), what Ent. A Max Activity belongs to Cc1cccc(C)c1-c1cc2nc(n1)NS(=O)(=O)c1cccc(c1)C(=O)NC(C(=O)NC(C)(C)C)CO2 (stereo not drawn) ?
// result + (+ is <30%)

// query Lab note: need Ent. A Max Activity for Cc1cccc(C)c1-c1cc2nc(n1)NS(=O)(=O)c1cccc(c1)C(=O)N[C@@H]1Cc3ccccc3[C@@H]1O2 (stereo in doubt) on CFTR (Homo sapiens, UniProt P13569), anyone have it?
// result +++ (+++ is >60%)

// query Item COc1ccc(C)c(-c2cc3nc(n2)NS(=O)(=O)c2cccc(c2)C(=O)N[C@H](CC(C)C)CO3)c1 with CFTR (Homo sapiens, UniProt P13569) - Ent. A Max Activity?
// result +++ (+++ is >60%)

// query I'm curious: which Ent. A Max Activity was measured for Cc1cccc(C)c1-c1cc2nc(n1)NS(=O)(=O)c1cccc(c1)C(=O)NCC(c1ccccn1)O2 (stereo not drawn) tested on CFTR (Homo sapiens, UniProt P13569)?
// result + (+ is <30%)

// query Tell me reported Ent. A Max Activity for Cc1cccc(C)c1-c1cc2nc(n1)NS(=O)(=O)c1cccc(c1)C(=O)NC[C@@H](c1ccc(C(C)(F)F)cc1)O2 (stereo in doubt) [Compound 399] , tested with CFTR (Homo sapiens, UniProt P13569).
// result +++ (+++ is >60%)

// query Which Ent. A Max Activity is reported with CFTR (Homo sapiens, UniProt P13569) for this entry: Cc1cccc(C)c1-c1cc2nc(n1)NS(=O)(=O)c1cccc(c1)C(=O)NCC(c1ccc(C(C)C)cc1)O2 (stereo not drawn) [Compound 272] ?
// result + (+ is <30%)

// query Request body: readout Ent. A Max Activity, system CFTR (Homo sapiens, UniProt P13569), query Cc1cccc(C)c1-c1cc2nc(n1)NS(=O)(=O)c1cccc(c1)C(=O)N[C@H](CC1CCC(F)(F)CC1)CO2 . Return the value.
// result +++ (+++ is >60%)

// query CFTR (Homo sapiens, UniProt P13569) / Ent. A Max Activity / Cc1cccc(C)c1-c1cc2nc(n1)NS(=O)(=O)c1cc(ccn1)C(=O)N[C@H](CC1CCCCC1)CO2 : value?
// result +++ (+++ is >60%)

// query Value wanted: Ent. A Max Activity (CFTR (Homo sapiens, UniProt P13569)) of entry Cc1cccc(C)c1-c1cc2nc(n1)NS(=O)(=O)c1cccc(c1)C(=O)N[C@H](C1CCCCC1)CO2
// result +++ (+++ is >60%)

// query Hello, I am looking for reported Ent. A Max Activity with CFTR (Homo sapiens, UniProt P13569) for Cc1cccc(C)c1-c1cc2nc(n1)NS(=O)(=O)c1cccc(c1)C(=O)NC1(CCCC1)CO2 . Could you help?
// result +++ (+++ is >60%)

// query GET /values?readout=Ent. A Max Activity&system=CFTR (Homo sapiens, UniProt P13569)&item= Cc1cccc(C)c1-c1cc2nc(n1)NS(=O)(=O)c1ccnc(c1)C(=O)N[C@H](CC1CCCCC1)CO2
// result +++ (+++ is >60%)

// query Can you look up Ent. A Max Activity on CFTR (Homo sapiens, UniProt P13569) for Cc1cccc(C)c1-c1cc2nc(n1)NS(=O)(=O)c1ccccc1C(=O)NCC(C1CCC(C)(C)CC1)O2 (stereo not drawn) ?
// result +++ (+++ is >60%)

// query Return Ent. A Max Activity measured with CFTR (Homo sapiens, UniProt P13569) given this molecule: Cc1cccc(C)c1-c1cc2nc(n1)NS(=O)(=O)c1cccc(c1)C(=O)NC[C@@H](c1ccc(C(F)(F)F)cc1)O2 (stereo in doubt)
// result +++ (+++ is >60%)

// query Return Ent. A Max Activity measured with CFTR (Homo sapiens, UniProt P13569) given this molecule: CC(C)C[C@@H]1COc2cc(N3C(C)CCC3C)nc(n2)NS(=O)(=O)c2cccc(c2)C(=O)N1 (stereo partly drawn)
// result + (+ is <30%)

// query Lookup: Ent. A Max Activity / CFTR (Homo sapiens, UniProt P13569) / CCCC[C@@H]1Oc2cc(-c3c(C)cccc3C)nc(n2)NS(=O)(=O)c2cccc(c2)C(=O)N[C@@H]1CC1CCCCC1 (stereo in doubt)
// result +++ (+++ is >60%)

// query Could you share what Ent. A Max Activity was measured for Cc1cccc(C)c1-c1cc2nc(n1)NS(=O)(=O)c1cccc(c1)C(=O)N[C@H](C)[C@@H](c1ccc(C(C)(C)C)cc1)O2 , tested on CFTR (Homo sapiens, UniProt P13569)?
// result +++ (+++ is >60%)

// query Fill in the recorded Ent. A Max Activity for this molecule, with CFTR (Homo sapiens, UniProt P13569) as test system: Cc1cccc(C)c1-c1cc2nc(n1)NS(=O)(=O)c1cc(cc(C3CCOCC3)c1)C(=O)N[C@H](CC(C)C)CO2
// result + (+ is <30%)

// query Request body: readout Ent. A Max Activity, system CFTR (Homo sapiens, UniProt P13569), query Cc1cccc(C)c1-c1cc2nc(n1)NS(=O)(=O)c1cccc(c1)C(=O)NCC(c1cnc(C(C)(C)C)nc1)O2 (stereo not drawn) . Return the value.
// result + (+ is <30%)

// query Form field - read-out: Ent. A Max Activity; system: CFTR (Homo sapiens, UniProt P13569); submitted item: Cc1ccccc1-c1cc2nc(n1)NS(=O)(=O)c1cccc(c1)C(=O)N[C@H](CC(C)(C)C)CO2
// result +++ (+++ is >60%)

// query # get_value(readout= Ent. A Max Activity, system= CFTR (Homo sapiens, UniProt P13569)) for Cc1cccc(C)c1-c1cc2nc(n1)NS(=O)(=O)c1cccc(c1)C(=O)NCC(c1ccc(C(C)C)cc1)O2 (stereo not drawn) [Compound 271]
// result +++ (+++ is >60%)

// query Request body: readout Ent. A Max Activity, system CFTR (Homo sapiens, UniProt P13569), query CC(C)C[C@@H]1COc2cc(-c3ccccc3F)nc(n2)NS(=O)(=O)c2cccc(c2)C(=O)N1 . Return the value.
// result +++ (+++ is >60%)
